Quick reference: composite z-score of the listed items.
Experiment: small-molecule microarray binders of probe aShh, primary screen, biochemical, biotinylated probe, 635/667 nm fluorescence (AID 1114);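 note: probe is biotin-labelled aShh protein from a stem cell growth factor screen; measures binding of labelled protein to compounds printed on the slide; score merges feature fluorescence at 667 nm with signal-to-noise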
Conditions: higher = more signal
Simply state the number, no unit and no words.

COMPOUND	TEST_VALUE
C=CCOC(=O)[C@H]1[C@@H]2C(=O)O[C@@H](c3ccccc3)[C@@H](c3ccccc3)N2[C@@H](c2ccc(OCCOC(=O)[C@H]3C[C@H]4C(=O)N[C@@H](CCCCNC(C)=O)C(=O)N4[C@H]3c3ccc(O)cc3)cc2)[C@]12C(=O)Nc1ccccc12	0.157
C=CCOC(=O)[C@H]1[C@@H]2C(=O)O[C@@H](c3ccccc3)[C@@H](c3ccccc3)N2[C@@H](c2ccc(OCCOC(=O)[C@@H]3C[C@@H]4C(=O)N5CCC[C@H]5C(=O)N4[C@@H]3c3ccc(O)cc3)cc2)[C@]12C(=O)Nc1ccc(I)cc12	-0.155
O=C(NCc1ccccc1)[C@@H]1c2ccccc2C(=O)N(Cc2ccccc2C(F)(F)F)[C@H]1c1ccc(CO)cc1	-0.419

[in] Look up composite z-score for this compound: CC(C)N1CC=CC23O[C@@H]4C=CCOC(=O)[C@@H]4[C@H]2C(=O)N(CCCO)[C@@H]3C1=O (stereo partly drawn)
[out] -0.123

[in] Same thing, different compound: C=C(/C(=C/C[C@H](OC(=O)c1ccncc1)c1ccc(CO)o1)c1cc(C(=O)OC)ccc1OC)C(C)C
[out] 0.235

[in] Same thing, different compound: COC(=O)[C@@]1(Cc2ccc(OC)cc2)[C@H]2c3cc(C(=O)N4CCCC4)n(Cc4cccc5ccccc45)c3C[C@H]2CN1C(=O)c1ccccc1
[out] 0.521

[in] Same thing, different compound: COCCOC(=O)N1C(=O)[C@@]2(c3cc(C#Cc4ccc(OC)cc4)ccc31)[C@H](c1ccccc1OCCO)N1[C@H](c3ccccc3)[C@H](c3ccccc3)OC(=O)[C@H]1[C@@H]2C(=O)N1CCCCCCC1
[out] 2.59

[in] Same thing, different compound: CN1C(=O)C2C=CC(C(O)C#Cc3ccccc3)N(Nc3ccccc3)C2C1=O (stereo not drawn)
[out] -0.0243

[in] Same thing, different compound: OCC1CC(c2ccccc2)=NO1 (stereo not drawn)
[out] -0.248

[in] Same thing, different compound: C=CCN1Cc2ccccc2[C@H]2OC(c3ccc(OCCCO)cc3)=N[C@@]2(CC=C)C1=O
[out] 0.14

----------
Test: E. coli acrAB mutant growth effects, primary screen, E. coli filamentation inducers, strain DRC39, OD650, 24 h (AID 1178);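 note: growth measured as culture turbidity by optical density at 650 nm; test concentration not given here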
Conditions: higher = more signal, called active from +8 up or from −8 down
MEASUREMENT_LABEL: z-score
Simply state the number, no unit and no words.

> print(dat)
                                   compound  measurement.label  test.value
1  NCCCCCNC(=O)[C@@H]1C[C@@H]2C(=O)NCC(=O)N2[C@@H]1c1cccc(OCCO)c1            z-score     -0.0625
2  CO[C@]12C=C(Br)[C@@H](C[C@@H]1c1cccc(C)c1)[C@@]1(CO1)C2=O            z-score       0.632
3   OCC1CC(c2ccccc2)=NO1 (stereo not given)            z-score      -0.075
4  CC(C)C[C@@H]1NC(=O)[C@@H]2C[C@H](C(=O)NCCCCCN)[C@H](c3ccc(O)cc3)N2C1=O            z-score      -0.496

Shift focus to the following entry.
[in] Look up z-score for this compound: CCCCC=C[C@@H](NC(=O)c1ccc(-c2ccccc2)cc1)c1ccccc1
[out] -0.335
